# Assay Explanation: Pediatric phase 1 trial: plasma pharmacokinetics after first dose
# Set-up: species or system human
# Setup Conditions: human, in vivo, terminal elimination half-life (t1/2), median
Quantity Measured: half-life

Value of half-life reported for the compound `Cc1ccc(C(=O)N(CCCN)[C@@H](c2nc3cc(Cl)ccc3c(=O)n2Cc2ccccc2)C(C)C)cc1` is 16 h

---

# Assay Explanation: Pediatric phase 1 trial: plasma pharmacokinetics after first dose
# Design: species or system human
# Setup Conditions: human, in vivo, iv, 12 mg/m2, Cmax
Quantity Measured: Cmax (ng/mL)
Kindly provide the numeric value in ng/mL only, without the unit symbol.

Query `Cc1ccc(C(=O)N(CCCN)[C@@H](c2nc3cc(Cl)ccc3c(=O)n2Cc2ccccc2)C(C)C)cc1` yields Cmax of 204

Data provenance is paper PMC3053384.
